- assayed-target: Peroxisome proliferator-activated receptor gamma (Homo sapiens)
- assay-info: enhancers of SRC-1 binding to PPARgamma – biochemical, primary screen (AID 631);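 note: 0% = DMSO and 100% = reference agonist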
- condition-info: PPARgamma-SRC-1 coactivator recruitment biochemical assay; at 8 µM
In all, about 200,000 compounds went through this assay and about 810 (0.41%) were called active. Cut-off read from the data, not from the text of the source: active = activation above about 19%; inactive = the rest. The sample holds actives, similar compounds and a random draw of the others, so the mix is not that of the screen.
A correct response names exactly one class from Yes = active, No = inactive

Reference set (2 entries):
O=C(NNc1cc(Cl)ccc1Cl)c1cccnc1Cl	No
COc1ccc(OC)c(C(=O)CSc2nnc(-c3cccs3)o2)c1	No

Req: // param item: `C=CCN(CC=C)CCOc1ccccc1[N+](=O)[O-]` ; yields the recorded call
Resp: No

Req: // param item: `CCOc1ccc(N(CC(=O)NCCc2ccc(OC)cc2)S(C)(=O)=O)cc1` ; yields the recorded call
Resp: No

Req: // param item: `CN(C)c1ccc(N/C=C/C(=O)C(F)(F)F)cc1` ; yields the recorded call
Resp: Yes

Req: // param item: `COC(=O)c1c(C)[nH]c(C)c1-c1ccc([N+](=O)[O-])cc1` ; yields the recorded call
Resp: No

Req: // param item: `NC(=O)CSc1oc(-c2cccs2)nc1S(=O)(=O)c1ccccc1` ; yields the recorded call
Resp: Yes

Req: // param item: `Cn1c(-c2sc3cc(C(F)(F)F)cnc3c2-c2ccccc2)n[nH]c1=S` ; yields the recorded call
Resp: Yes

Req: // param item: `CCCOc1ccc(N/C=C/C(=O)C(C)(C)C)cc1` ; yields the recorded call
Resp: No

Req: // param item: CCOc1cc(C2C(C(=O)OC(C)C)=C(C)NC3=C2C(=O)CCC3)cc([N+](=O)[O-])c1O (stereo unspecified) ; yields the recorded call
Resp: No

Req: // param item: `COC(=O)CSc1nccc(-c2cccs2)n1` ; yields the recorded call
Resp: No

---

- assayed-target: Peroxisome proliferator-activated receptor gamma (Homo sapiens) (UniProt P37231)
- Sequence (P37231 whole entry, looked up): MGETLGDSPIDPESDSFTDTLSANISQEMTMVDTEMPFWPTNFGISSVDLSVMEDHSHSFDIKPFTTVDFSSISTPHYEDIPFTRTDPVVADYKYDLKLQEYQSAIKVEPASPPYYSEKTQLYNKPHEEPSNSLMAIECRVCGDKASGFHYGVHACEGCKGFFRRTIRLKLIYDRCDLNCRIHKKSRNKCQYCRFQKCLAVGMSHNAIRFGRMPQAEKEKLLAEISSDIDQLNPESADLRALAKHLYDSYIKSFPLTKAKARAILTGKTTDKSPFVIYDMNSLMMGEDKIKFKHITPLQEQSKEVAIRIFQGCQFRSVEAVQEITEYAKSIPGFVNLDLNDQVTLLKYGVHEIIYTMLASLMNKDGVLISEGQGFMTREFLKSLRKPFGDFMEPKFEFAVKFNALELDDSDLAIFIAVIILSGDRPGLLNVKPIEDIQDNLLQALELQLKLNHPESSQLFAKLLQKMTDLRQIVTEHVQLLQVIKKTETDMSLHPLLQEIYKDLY
- assay-info: enhancers of SRC-1 binding to PPARgamma – biochemical, primary screen (AID 631);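 note: 0% = DMSO and 100% = reference agonist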
- condition-info: PPARgamma-SRC-1 coactivator recruitment biochemical assay; at 8 µM; stronger effect = higher value
Screen size: about 200,000 compounds; about 810 (0.41%) were called active. Only a selection was taken, and actives are over-represented in it overall.
measurement-type: activation (%)
// return numeric value only (unit: %, not printed)

`CCOC(=O)CNC(=O)N1c2ccccc2Sc2ccccc21` has a reported activation of 8.4

`CC(=O)c1sc2nc(SCC(=O)N3CCCCC3)[nH]c(=O)c2c1C` has a reported activation of 19.1

`Fc1ccc(COc2cccc(-c3n[nH]c(=S)o3)c2)cc1` has a reported activation of 61.7

CC(=O)Nc1ccccc1OC(C)C(=O)N1CCC(C)CC1 (stereo unspecified) has a reported activation of 3.2

`CNC(=O)c1[nH]cnc1C(=O)N[C@@H](CC(C)C)C(=O)OC(C)(C)C` has a reported activation of 5.5

`Cc1cccc(OCc2ccc(C(=O)Nc3ccc(F)cc3)cc2)c1` has a reported activation of 8.1

`C=CCNC(=O)CSc1nc2sc(C)c(C)c2c(=O)[nH]1` has a reported activation of 1.1

---

- assayed-target: Peroxisome proliferator-activated receptor gamma (Homo sapiens)
- assay-info: enhancers of SRC-1 binding to PPARgamma – biochemical, primary screen (AID 631);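 note: 0% = DMSO and 100% = reference agonist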
- condition-info: PPARgamma-SRC-1 coactivator recruitment biochemical assay; at 8 µM; stronger effect = higher value
The whole screen tested about 200,000 compounds, of which about 810 (0.41%) were called active. The list comes from a sample in which actives are over-represented; it also holds close analogues and randomly drawn compounds.
measurement-type: activation (%)
// return numeric value only (unit: %, not printed)

Some solved cases for reference:
CCCc1nnc(NC(=O)c2cccs2)s1	-1.6
O=c1c2sccc2nc(SCc2cc(=O)n3ccccc3n2)n1-c1ccc(Br)cc1	3

`C=CCn1cc(-c2cccc(C(F)(F)F)c2)cc(C#N)c1=O` has a reported activation of 5.6

`CC(C)CC(CC(C)C)=NNC(=O)c1ccc(CSc2nncn2C)cc1` has a reported activation of 9.8

CCC(C)(C)NC(=O)C(c1ccccn1)N(C(=O)c1csnn1)c1ccccc1 (stereo unspecified) has a reported activation of 3.1

`Cc1ccc(C(=O)Nc2nnc(-c3cccs3)s2)cc1C` has a reported activation of 21.8

`CCN1CCN(c2cc3nc(C)n(Cc4ccccc4)c(=O)c3cc2NC(=O)c2ccccc2F)CC1` has a reported activation of 3.9

---

- assayed-target: Peroxisome proliferator-activated receptor gamma (Homo sapiens) (UniProt P37231)
- assay-info: enhancers of SRC-1 binding to PPARgamma – biochemical, primary screen (AID 631);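 note: 0% = DMSO and 100% = reference agonist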
- condition-info: PPARgamma-SRC-1 coactivator recruitment biochemical assay; at 8 µM; stronger effect = higher value
In all, about 200,000 compounds went through this assay and about 810 (0.41%) were called active. This excerpt belongs to a sample that is enriched for actives.
measurement-type: activation (%)
// return numeric value only (unit: %, not printed)

Some solved cases for reference:
Cc1ccc(NS(=O)(=O)c2cccs2)cc1S(=O)(=O)N1CCCCCC1	27.9
CC(Sc1nncn1C)C(=O)Nc1cc(C(F)(F)F)ccc1N1CCOCC1 (stereo not given)	-2.1
O=C(NCCCN1CCN(c2ccc(F)cc2)CC1)Nc1ccc([N+](=O)[O-])cc1	11.9
Cc1ccccc1-c1n[nH]c(=S)n1C	3.3
CCn1ccnc1CN(C)Cc1nc(-c2ccc3c(c2)OCO3)no1	3.8
COc1ccccc1CCNC(=O)CSc1nnc2ccc(-c3cccnc3)nn12	4.1
Cc1ccc2c(c1)C1CN(C)CCC1N2C(=O)c1ccccc1NS(=O)(=O)c1ccc(F)cc1C (stereo not given)	1.7
Cc1ccc(C(=O)CNc2ccc(F)cc2)cc1	-3.3

The molecule `Cc1cc(NC(=O)COC(=O)COc2ccc(Cl)cc2C)c([N+](=O)[O-])cc1C` , tested on Peroxisome proliferator-activated receptor gamma (Homo sapiens) (UniProt P37231), showed activation of -2.9

The molecule `OCC1(CCc2ccccc2)CCN(Cc2ccc3nsnc3c2)CC1` , tested on Peroxisome proliferator-activated receptor gamma (Homo sapiens) (UniProt P37231), showed activation of 35.7

The molecule CCN1CC(CN(C)Cc2nc(-c3ccc(Cl)cc3)no2)CC1=O (stereo not given) , tested on Peroxisome proliferator-activated receptor gamma (Homo sapiens) (UniProt P37231), showed activation of -3.9

The molecule `S=C(NN=C1CCN(Cc2ccccc2)CC1)NC1CCCCC1` , tested on Peroxisome proliferator-activated receptor gamma (Homo sapiens) (UniProt P37231), showed activation of -1.7

The molecule `Cc1nn2cc(-c3ccc(Cl)cc3)cnc2c1Br` , tested on Peroxisome proliferator-activated receptor gamma (Homo sapiens) (UniProt P37231), showed activation of 9.4

The molecule CC1=C(C(=O)N(C)C)C(c2ccccc2OC(F)F)NC(=O)N1 (stereo not given) , tested on Peroxisome proliferator-activated receptor gamma (Homo sapiens) (UniProt P37231), showed activation of 6.7

The molecule `Nc1nc(SCC(=O)NCCN2CCOCC2)nc2sc3c(c12)CCC3` , tested on Peroxisome proliferator-activated receptor gamma (Homo sapiens) (UniProt P37231), showed activation of 6

The molecule COc1ccc(C(=O)OCC(=O)NCC2CCCO2)cc1[N+](=O)[O-] (stereo not given) , tested on Peroxisome proliferator-activated receptor gamma (Homo sapiens) (UniProt P37231), showed activation of 15

The molecule `Cc1cc(-c2ccc(/C=N/n3cnnc3)o2)c([N+](=O)[O-])cc1C` , tested on Peroxisome proliferator-activated receptor gamma (Homo sapiens) (UniProt P37231), showed activation of -9.4

The molecule `O=C(C1CCN(C2CCN(Cc3cccc4c3OCO4)CC2)CC1)N1CCOCC1` , tested on Peroxisome proliferator-activated receptor gamma (Homo sapiens) (UniProt P37231), showed activation of 1.6

The molecule `CCOC(=O)c1ccccc1C(=O)N1CCOCCOCCOCC1` , tested on Peroxisome proliferator-activated receptor gamma (Homo sapiens) (UniProt P37231), showed activation of -0.2

---

- assayed-target: Peroxisome proliferator-activated receptor gamma (Homo sapiens) (UniProt P37231)
- assay-info: enhancers of SRC-1 binding to PPARgamma – biochemical, primary screen (AID 631);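 note: 0% = DMSO and 100% = reference agonist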
- condition-info: PPARgamma-SRC-1 coactivator recruitment biochemical assay; at 8 µM; stronger effect = higher value
Hit rate of the full screen: of about 200,000 compounds, about 810 (0.41%) were called active. This is one part of a sample in which actives are shown more often than they occur.
measurement-type: activation (%)
// return numeric value only (unit: %, not printed)

Cn1c(-c2sccc2OCc2cccc(C(F)(F)F)c2)n[nH]c1=S	2.2
Cc1cc(C(F)(F)F)n2ncc(-c3ccccc3)c2n1	-0.8
CCSc1nc(-c2ccc(OC)cc2)cc(-c2ccc(OC)cc2)c1C#N	-1.5
O=C(Cc1cc(=O)[nH][nH]1)N/N=C/c1ccccc1[N+](=O)[O-]	1.6
Nc1ccc(Nc2ccccc2)cc1	20.9

Okay, next one:
`Cc1cc(Nc2ccccc2)n(C(=O)c2ccc(N)cc2)n1` has a reported activation of 3.5
